System: Saccharomyces cerevisiae BY4741 SeMeCo community
Test: z-score of subpopulation abundance vs DMSO median, subpopulation auxotrophic for HLU; higher = larger share of this subpopulation than in DMSO controls
Conditions: 10 µM; 24 h; SM minimal medium; subpopulation (auxotrophy): HLU
Counter-ions that a name gives are not always drawn.
Measured z-score of subpopulation abundance, listed per entry for reference.
Please reply with the number alone, leaving off any unit.

1. CC[N+](CC)(CC)CC [Tetraethylammonium bromide] = 0.38
2. CCC1(C)CC(=O)NC1=O (stereo not drawn) [Ethosuximide] = -0.1
3. CC(=O)[C@@]1(O)CC[C@H]2[C@@H]3C[C@H](C)C4=CC(=O)CC[C@]4(C)[C@H]3CC[C@@]21C = 1.06
4. CCn1cc(C(=O)O)c(=O)c2cc(F)c(N3CCN(C)CC3)cc21 [Pefloxacin Mesylate Dihydrate] = 0.03
5. CCCCNC(=O)NS(=O)(=O)c1ccc(C)cc1 [Tolbutamide] = -0.37
6. Nc1nc(/C(=C/CC(=O)O)C(=O)N[C@@H]2C(=O)N3C(C(=O)O)=CCS[C@H]23)cs1 [Ceftibuten dihydrate] = -0.13

Answer with the recorded z-score of subpopulation abundance of `c1cnc(N2CCN(Cc3ccc4c(c3)OCO4)CC2)nc1` only.
0.22

Note down z-score of subpopulation abundance recorded for CC1(C)S[C@@H]2[C@H](NC(=O)[C@H](C(=O)O)c3ccsc3)C(=O)N2[C@H]1C(=O)O [Ticarcillin sodium]
1.46

Taken from the supplement of paper PMC8975748.
